MEASUREMENT_TARGET: Gastrin/cholecystokinin type B receptor (Rattus norvegicus, UniProt P30553)
Sequence (P30553 whole entry): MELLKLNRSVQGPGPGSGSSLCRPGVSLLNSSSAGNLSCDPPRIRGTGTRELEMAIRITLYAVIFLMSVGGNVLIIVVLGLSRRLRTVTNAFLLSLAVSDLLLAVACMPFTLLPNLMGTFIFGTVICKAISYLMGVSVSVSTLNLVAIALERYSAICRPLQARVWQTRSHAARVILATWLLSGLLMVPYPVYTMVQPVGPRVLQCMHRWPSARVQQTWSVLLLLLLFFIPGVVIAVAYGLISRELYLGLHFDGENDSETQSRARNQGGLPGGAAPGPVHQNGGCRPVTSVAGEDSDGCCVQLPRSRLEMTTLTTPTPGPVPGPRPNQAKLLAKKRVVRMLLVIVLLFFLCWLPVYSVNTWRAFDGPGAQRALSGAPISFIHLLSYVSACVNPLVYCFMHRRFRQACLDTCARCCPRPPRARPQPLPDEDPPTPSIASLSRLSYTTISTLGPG
MEASUREMENT_DESCRIPTION: Tested for displacement of [125I]-CCK-8 from Gastrin/Cholecystokinin type B receptor in rat brain.
Assay type: tissue-based
Param label: returns Y when IC50 < 40 nM, returns N otherwise, including exact equality.

As a guide, the following entries are already answered.
- COMPOUND: "CCCC[C@H](NC(=O)Cc1c[nH]c2ccccc12)C(=O)N(CCC1CCCCC1)CC(=O)N1CCCC1"
  LABEL_VALUE: "N"
- COMPOUND: "CC(C)C[C@@H](C(=O)N[C@@H](CC(=O)O)C(=O)N[C@@H](Cc1ccccc1)C(N)=O)N1CC(=O)N[C@H](Cc2c[nH]c3ccccc23)C1=O"
  LABEL_VALUE: "Y"
- COMPOUND: "CC(C)(C)OC(=O)N1c2ccccc2C[C@@H]1C(=O)N1[C@@H](C(=O)N2Cc3ccccc3C[C@@H]2CC(=O)O)CC[C@H]1c1ccccc1"
  LABEL_VALUE: "Y"
- COMPOUND: "CC(C)(C)OC(=O)N1c2ccccc2C[C@@H]1C(=O)N1[C@@H](C(=O)N2Cc3ccccc3C[C@@H]2C(=O)N2CCC[C@@H]2C(=O)O)CC[C@H]1c1ccccc1"
  LABEL_VALUE: "Y"
- COMPOUND: "CCCC[C@H](NC(=O)Cc1c[nH]c2ccccc12)C(=O)N(CC(=O)N1CCC[C@H]1C(=O)O)CC1CCCCC1"
  LABEL_VALUE: "Y"

Next compound, please.
Query string: Does CC(C)(C)OC(=O)N1c2ccccc2C[C@@H]1C(=O)N1[C@@H](C(=O)N2Cc3ccccc3C[C@@H]2C(=O)N2CCCC2C(=O)O)CC[C@H]1c1ccccc1 (stereo partly specified) have IC50 strictly under 40 nM?
Result string: Y
